# Study target: BaF3 V617F cells (Homo sapiens, UniProt O60674, V617F, cells depend on it)
# Sequence (O60674 whole entry V617F): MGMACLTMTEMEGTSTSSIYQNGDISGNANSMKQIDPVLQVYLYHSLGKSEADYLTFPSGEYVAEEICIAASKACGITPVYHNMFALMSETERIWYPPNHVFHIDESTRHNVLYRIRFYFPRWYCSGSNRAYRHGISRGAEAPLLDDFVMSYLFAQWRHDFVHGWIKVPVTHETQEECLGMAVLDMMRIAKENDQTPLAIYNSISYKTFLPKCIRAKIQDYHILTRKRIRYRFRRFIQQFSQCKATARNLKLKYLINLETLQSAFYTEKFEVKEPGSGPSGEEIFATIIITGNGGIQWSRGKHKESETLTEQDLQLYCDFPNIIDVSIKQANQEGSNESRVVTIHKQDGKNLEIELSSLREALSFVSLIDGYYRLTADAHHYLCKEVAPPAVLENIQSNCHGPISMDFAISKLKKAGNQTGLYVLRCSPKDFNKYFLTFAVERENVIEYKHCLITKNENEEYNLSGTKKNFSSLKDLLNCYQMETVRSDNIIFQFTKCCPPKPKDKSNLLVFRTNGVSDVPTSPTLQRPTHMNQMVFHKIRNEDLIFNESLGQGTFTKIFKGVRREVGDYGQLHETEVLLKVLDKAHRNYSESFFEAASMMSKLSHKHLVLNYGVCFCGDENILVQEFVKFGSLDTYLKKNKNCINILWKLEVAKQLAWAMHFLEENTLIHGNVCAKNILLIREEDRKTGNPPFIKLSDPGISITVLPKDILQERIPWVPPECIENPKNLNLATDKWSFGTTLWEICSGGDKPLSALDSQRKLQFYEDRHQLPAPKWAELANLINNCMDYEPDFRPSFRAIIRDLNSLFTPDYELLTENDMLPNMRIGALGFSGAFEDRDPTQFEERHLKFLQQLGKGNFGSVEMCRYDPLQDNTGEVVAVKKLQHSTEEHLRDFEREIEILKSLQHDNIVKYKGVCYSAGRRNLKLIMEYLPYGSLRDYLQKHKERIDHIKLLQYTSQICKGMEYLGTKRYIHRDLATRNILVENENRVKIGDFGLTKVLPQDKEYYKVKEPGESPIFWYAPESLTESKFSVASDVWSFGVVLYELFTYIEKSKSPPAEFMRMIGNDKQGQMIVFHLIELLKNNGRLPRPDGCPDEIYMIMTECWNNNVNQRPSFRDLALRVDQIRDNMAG
# Assay explanation: Proliferation assay, BaF3 V617F cells (Cell Titer-Glo)
# Type: cell-based, mouse
# Run parameters: proliferation for 72 hours at 37° C., stated to show ability to inhibit JAK2 activity, read-out: IC50 (the source's name)
For each record, write down the corresponding GI50.

These recorded examples may help you get a feel for the data.
                                   compound           result
0  CC(C)(C)NS(=O)(=O)c1cccc(Nc2nc(Nc3ccc4c(c3)[C@@H]3NC(=O)O[C@@H]3C4)ncc2Cl)c1 [Compound 14]   500 to 1000 nM
1  Cc1cnc(Nc2ccc3c(c2)[C@H]2NC(=O)O[C@H]2C3)nc1Nc1ccc(OCc2ccccn2)cc1 [Compound 27]    250 to 500 nM
2  O=C1N[C@H]2c3cc(Nc4ncc(F)c(Nc5ccc(OCc6ccccn6)cc5)n4)ccc3C[C@H]2O1 [Compound 30]  1000 to 5000 nM

Hi there! I need GI50 for each item below, if you can.
1. O=C1N[C@@H]2c3cc(Nc4ncc(F)c(Nc5ccc(CCc6ccncc6)cc5)n4)ccc3C[C@@H]2O1 [Compound 29]
2. CN1C(=O)C(C)(C)Oc2ccc(Nc3nc(Nc4ccc5c(c4)[C@@H]4NC(=O)O[C@@H]4C5)ncc3Cl)cc21 [Compound 10]

1. 250 to 500 nM
2. < 250 nM
